# testedSystem: Calcium-dependent protein kinase 1 (Plasmodium falciparum (isolate 3D7))
# methodSummary: PfCDPK1 kinase inhibitors, biochemical, TCAMS library (AID 1159585);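 also: inhibitors leave more ATP so luminescence rises with inhibition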
# conditionDetails: recombinant PfCDPK1, Kinase-Glo ATP depletion luminescence
Entries with a potency or affinity are not part of this list. Active and inactive are the calls of the source. The limit is not given here; nearly all actives have IC50 up to about 0.98 µM.
endpointName: outcome

Known results for molecules:
CCNC[C@H]1CCCN1CCOc1ccc(-n2cnc3cc(-c4ccc(Cl)cc4)sc3c2=O)cc1OC; inactive
CC(Nc1ccc2c(c1)CCC2)C(=O)Nc1cc(C(F)(F)F)ccc1N1CCOCC1 (stereo not given); inactive
CCCC(C)Nc1nc(C)cc(N[C@@H](CC(C)C)C(=O)NCCc2ccccc2)n1 (stereo not given in full); inactive
COc1ccc2c(NN=Cc3ccc(OC)c4ccccc34)cc(C)nc2c1; inactive
Cc1cccc(Nc2c(-c3cc(Br)ccc3O)nc3ncccn23)c1; inactive

Please supply the value of reported outcome for the item CN1CCC(NCc2ccc(-c3ccc(Cl)cc3)cc2)CC1 inactive

For the molecule O=C(Nc1ccc(N2CCCN(Cc3cccc(F)c3)CC2)cc1)c1cccs1 , give its measured outcome value. inactive

Write down outcome measured for item COc1cc(CNC[C@@H](O)[C@H](Cc2ccccc2)NC(=O)c2cc(OC(C)C)cc(N3CCCS3(=O)=O)c2)cc(OC)c1 inactive

Specify outcome for Cc1ccc(C2(CN3CCC(NC(=O)c4[nH]ncc4Cl)CC3)CCCCC2)cc1 and stop. inactive

Return outcome (reported value) for this molecule: COc1ccc(N2CCc3c(-c4cccc5cnccc45)cc(C)nc32)c(C)c1 inactive

###

# testedSystem: L-lactate dehydrogenase (Plasmodium falciparum (isolate CDC / Honduras)) (UniProt Q27743)
# Sequence (Q27743 whole entry, looked up): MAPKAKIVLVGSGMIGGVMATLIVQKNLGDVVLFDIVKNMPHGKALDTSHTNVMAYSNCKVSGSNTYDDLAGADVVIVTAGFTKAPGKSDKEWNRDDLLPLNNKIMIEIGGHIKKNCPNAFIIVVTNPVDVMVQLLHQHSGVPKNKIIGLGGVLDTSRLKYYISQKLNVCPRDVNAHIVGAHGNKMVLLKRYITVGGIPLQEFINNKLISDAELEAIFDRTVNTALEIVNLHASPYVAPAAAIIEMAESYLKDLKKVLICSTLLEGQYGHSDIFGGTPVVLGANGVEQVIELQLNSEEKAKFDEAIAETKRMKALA
# methodSummary: PfLDH activity inhibition – cell lysate, 3D7 strain, counter-screen for P. falciparum growth inhibition project (AID 2304);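 also: 0% = vehicle and 100% = reference inhibitor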
# conditionDetails: P. falciparum 3D7 crude extract, LDH APAD/NBT absorbance; at 2 µM; hits give high values
endpointName: inhibition (%)
Return type: number; implicit unit %.

Here are 4 molecules together with their reported answers.
Cc1cccc2[nH]c(-c3ccc(-c4ccc(CNCCCN5CCCC5=O)cc4)s3)nc12; 2
Oc1ccccc1CCNCC1CCc2ccccc2C1 (stereo not given); 0
Cc1ccc(Cn2ncc(N3CCCNCC3)c(Cl)c2=O)cc1NC(=O)Nc1ccc(-c2ccccc2)cc1; 1
CC(=O)c1ccccc1C(=O)N1CCOc2ccc(C(O)C(c3ccccc3)c3ccccc3)cc2C1 (stereo not given); 3

Continue with the molecule presented below.
Supply inhibition value. Item: Cc1cc(NC(=O)c2cccs2)ccc1OC1CCN(Cc2ccc(C#N)cc2)C1 (stereo not given) -2

###

# methodSummary: antimalarial activity against Dd2 strain (AID 2302);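 also: 0% = DMSO untreated growth and 100% = chloroquine plus artemisinin killed control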
# conditionDetails: P. falciparum Dd2 in RBCs, LDH growth readout, 72 h; at 2 µM
The source made the active and inactive calls.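 The calls were made as follows: active = growth inhibition above 50% at the single 2 µM test dose, taken to imply half-maximal potency below 2 µM; inactive = the rest.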
// one of T (active), F (inactive), no free text

The following compounds have reported results that may help.
Cc1cccc2[nH]c(-c3ccc(-c4cccc(CNCCNC(=O)c5ccnn5C)c4)s3)nc12; T
COc1cc2ccccc2c(OC)c1CNCCCCCCNCc1c(OC)cc2ccccc2c1OC; T
Oc1cccc2c1CC(NCc1ccccc1)CC2 (stereo not given); F
CC(Cl)=CCc1c(C)[nH]c2c(ccc3ccccc32)c1=O; T
O=C(NCCN1CCCCC1)N1CCCN(c2ncnc3cc(-c4ccccc4)sc23)CC1; T

Hey, what did the test say about O=C(NCc1ccc(Cl)c(Cl)c1)c1cccc(C2CCCN(Cc3ccc4nc[nH]c4c3)C2)c1 (stereo not given) ? F

Please indicate how the test categorized O=C(/C=C/c1ccc(Cl)c(Cl)c1)NCCCCCN1CCC(NC(=S)Nc2ccc(Cl)cc2)CC1 . F

Recorded test outcome, item Cc1cc(OCCCN2CCC(NS(=O)(=O)c3ccc(Cl)c(Cl)c3)C2)c2ccccc2n1 (stereo not given) F

What was the test verdict on Cc1ccc(Cn2nc(N3CCNCC3)ccc2=O)cc1NC(=O)Nc1ccc(-c2ccccc2)cc1 ? F

For Clc1ccc(-c2csc3ncnc(Cl)c23)cc1 , what call appears in the results of this test? T

Assay outcome for Cc1nc2c(s1)c(=O)cc(CCc1cccc(F)c1F)n2CC(=O)N(Cc1ccc(-c2ccc(C(F)(F)F)cc2)cc1)C1CCN(C(C)C)CC1 : what was it? T

So what was the verdict on O=S(=O)(c1ccc(OCc2ccc(Cl)cc2)cc1)c1cc2c(cc1O)CCN(C1CCC1)CC2 in this test? T

Could you please tell me the result logged for N#Cc1ccc2c(c1)CCN(CCC1CCC(NC(=O)/C=C/c3c[nH]c4ccc(F)cc34)CC1)CC2 (stereo not given) in this assay? T
